Measured Kd, listed per entry for reference.
B1: AnkB_AI-c (aa 828–852) [human] / AnkB_MBD (AnkB ANK repeats only, aa 28–827) [human] (parent complex)
chain 1: TEKHKLNVPETMTEVLDVSDEEGDD
chain 2: KSDSNASFLRAARAGNLDKVVEYLKGGIDINTCNQNGLNALHLAAKEGHVGLVQELLGRGSSVDSATKKGNTALHIASLAGQAEVVKVLVKEGANINAQSQNGFTPLYMAAQENHIDVVKYLLENGANQSTATEDGFTPLAVALQQGHNQAVAILLENDTKGKVRLPALHIAARKDDTKSAALLLQNDHNADVQSKMMVNRTTESGFTPLHIAAHYGNVNVATLLLNRGAAVDFTARNGITPLHVASKRGNTNMVKLLLDRGGQIDAKTRDGLTPLHCAARSGHDQVVELLLERGAPLLARTKNGLSPLHMAAQGDHVECVKHLLQHKAPVDDVTLDYLTALHVAAHCGHYRVTKLLLDKRANPNARALNGFTPLHIACKKNRIKVMELLVKYGASIQAITESGLTPIHVAAFMGHLNIVLLLLQNGASPDVTNIRGETALHMAARAGQVEVVRCLLRNGALVDARAREEQTPLHIASRLGKTEIVQLLLQHMAHPDAATTNGYTPLHISAREGQVDVASVLLEAGAAHSLATKKGFTPLHVAAKYGSLDVAKLLLQRRAAADSAGKNGLTPLHVAAHYDNQKVALLLLEKGASPHATAKNGYTPLHIAAKKNQMQIASTLLNYGAETNIVTKQGVTPLHLASQEGHTDMVTLLLDKGANIHMSTKSGLTSLHLAAQEDKVNVADILTKHGADQDAHTKLGYTPLIVACHYGNVKMVNFLLKQGANVNAKTKNGYTPLHQAAQQGHTHIINVLLQHGAKPNATTANGNTALAIAKRLGYISVVDTLKVVTEEVTTTTTTI

# Variants of: B1
# Assay: ITC; parent: 360 nM
Quantity: Kd (µM)

1. chain 1 M12Q :: 4.4
2. chain 1 L16Q :: 3.9
3. chain 1 N7K :: 2.7
